testedTarget: PDEV (Oryctolagus cuniculus, UniProt G1SX67)
procedureDetails: Cyclic nucleotide phosphodiesterase (PDE) assay, inhibition of PDEV isolated from rabbit tissue
Assay type: biochemical
runConditions: 10 μM test compound; rabbit PDEV
Quick rule: % Inh @ 10 μM (rabbit) of at least 80% means rule met, below that means rule not met.

Some entries whose results are on file:
> print(dat)
                                   molecule                              testedtarget    labelvalue
1  O=C(c1ccc(-c2cccc(C(F)(F)F)c2)o1)N1CCc2c(n(Cc3ccncc3)c3ccccc23)C1c1ccc2c(c1)OCO2 (stereo not shown) [Cmpd 74]  PDEV (Oryctolagus cuniculus, UniProt G1SX67)      rule met
2  Cc1onc(-c2ccccc2)c1C(=O)N1CCc2c([nH]c3ccccc23)C1c1ccc(C#N)cc1 (racemic) [Cmpd 115]  PDEV (Oryctolagus cuniculus, UniProt G1SX67)  rule not met
3  O=C(c1cnn(-c2ccccc2)c1C(F)(F)F)N1CCc2c([nH]c3ccccc23)C1c1ccc(Cl)c(C(F)(F)F)c1 (stereo not shown) [Cmpd 127]  PDEV (Oryctolagus cuniculus, UniProt G1SX67)  rule not met
4  O=C(c1ccc(-c2cccc([N+](=O)[O-])c2)o1)N1CCc2c([nH]c3ccccc23)C1c1ccc2c(c1)OC(F)(F)O2 (stereo not shown) [Cmpd 21]  PDEV (Oryctolagus cuniculus, UniProt G1SX67)  rule not met
5  O=C(c1ccc(-c2cc(C(F)(F)F)ccc2Cl)o1)N1CCc2c([nH]c3ccccc23)C1c1ccc2c(c1)OCO2 (stereo not shown) [Cmpd 57]  PDEV (Oryctolagus cuniculus, UniProt G1SX67)  rule not met

Evaluate Cc1ccc(-c2ccc(C(=O)N3CCc4c([nH]c5ccccc45)C3c3ccc4c(c3)OCO4)o2)c([N+](=O)[O-])c1 (stereo not shown) [Cmpd 53] : % Inh @ 10 μM (rabbit) at minimum 80%? rule met

Measured values drawn from patent US6864253B2 for this set.
